Catalogue of inhibition values
measured.target: Homeodomain-interacting protein kinase 4 (Homo sapiens) (UniProt Q8NE63);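 further: values are mean percent inhibition of HIPK4 from the GSK PKIS kinase screen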
Sequence (whole entry): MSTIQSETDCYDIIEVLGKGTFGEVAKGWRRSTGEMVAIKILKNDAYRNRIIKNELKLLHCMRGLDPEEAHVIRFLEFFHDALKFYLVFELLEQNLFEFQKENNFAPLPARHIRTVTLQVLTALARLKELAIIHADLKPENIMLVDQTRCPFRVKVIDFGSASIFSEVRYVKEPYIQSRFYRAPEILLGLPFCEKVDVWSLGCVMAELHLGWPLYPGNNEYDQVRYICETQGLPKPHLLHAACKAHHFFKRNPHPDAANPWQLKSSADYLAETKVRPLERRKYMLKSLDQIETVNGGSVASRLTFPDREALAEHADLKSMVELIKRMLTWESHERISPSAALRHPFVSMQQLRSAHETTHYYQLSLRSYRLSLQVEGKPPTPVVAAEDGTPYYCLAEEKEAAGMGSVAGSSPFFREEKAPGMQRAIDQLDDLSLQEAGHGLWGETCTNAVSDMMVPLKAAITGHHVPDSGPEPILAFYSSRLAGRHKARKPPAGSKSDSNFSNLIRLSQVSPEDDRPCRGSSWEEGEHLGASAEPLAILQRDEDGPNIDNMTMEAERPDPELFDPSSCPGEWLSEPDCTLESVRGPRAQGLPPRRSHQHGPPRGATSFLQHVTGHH
stated.conditions: at 1 µM
The figure you give is taken to be in %; do not add the unit.

In [3]: df
Out[3]:
                                smiles_data  units_text  value_observed
0  CN1CCC(n2cnc(-c3ccc(F)cc3)c2-c2ccnc(N)n2)CC1           %            16.7
1  Cc1ccc2c(-c3ccnc(Nc4ccccc4)n3)c(-c3ccc(F)cc3)nn2n1           %             4.2
2  COC(=O)Nc1nc2ccc(Oc3ccc(NC(=O)Nc4cccc(Cl)c4)cc3)cc2[nH]1           %            14.8

// moving on: another record for inhibition
Any idea what its inhibition is? The compound is "CCN1CCC(CC(=O)Nc2n[nH]c3nnc(-c4cccc(F)c4F)cc23)CC1"
3

====

Recorded inhibition, one value per entry.
measured.target: Dual specificity protein kinase TTK (Homo sapiens)
stated.conditions: at 0.1 µM
Description: GSK_PKIS: TTK mean inhibition at 0.1 uM [Nanosyn]
Return type: number; implicit unit %.

Example compounds with recorded inhibition:
In [3]: df
Out[3]:
                                smiles_data     measure  value_observed
0  c1ccc(COc2ccc(Nc3ncnc4ccc(-c5ccco5)cc34)cc2)cc1  inhibition            5.13
1  CN1CCC(n2cnc(-c3ccc(F)cc3)c2-c2ccnc(Nc3ccccc3)n2)CC1  inhibition            9.56

// inhibition lookup, key: "N#Cc1c(NC(=O)CN2CCOCC2)sc2c1CCCC2"
9.9

Same thing, different compound: "COc1cccc(-c2c[nH]c3c(N/N=C/c4ccncc4)ncnc23)c1"
7.43

What do we get for "Cc1ccc2c(-c3ccnc(Nc4ccccc4)n3)c(-c3ccc(F)cc3)nn2n1" ?
4.36

Another compound: "Nc1nc(-c2cccc(Cl)c2)c(-c2ccc3ncccc3n2)s1"
14

Okay, and "CNC(=O)c1cccc(C#Cc2cncnc2Nc2ccc(OCc3cccc(F)c3)c(Cl)c2)c1" ?
3.66
